Test system: carrageenin induced edema
protocol_description: carrageenin induced edema of the rat hind paw (anti-inflammatory)
Type: in vivo
experimental_conditions: 100 mg/Kg p.o., rats
quantity_measured: Per Cent Inhibition of the Edema

Task: Given CCCCc1nc2n(n1)Cc1ccccc1-2 [a, 2-n-butyl-5H-s-triazolo[5,1-a]isoindole] , state its recorded Per Cent Inhibition of the Edema.
Output: 28 Per Cent

Task: Item NC(=O)Nc1nc2n(n1)Cc1ccccc1-2 [e, 2-ureido-5H-s-triazolo[5,1-a]isoindole] has what recorded Per Cent Inhibition of the Edema?
Output: 29 Per Cent

Task: Could you tell me which Per Cent Inhibition of the Edema is on file for CC(=O)N(C(C)=O)c1nc2n(n1)Cc1ccccc1-2 ?
Output: 53 Per Cent

Task: Entry O=C(Nc1nc2n(n1)Cc1ccccc1-2)c1ccccc1 has what Per Cent Inhibition of the Edema?
Output: 28 Per Cent

Task: Please look up its Per Cent Inhibition of the Edema: CC(=O)Nc1nc2n(n1)Cc1ccccc1-2
Output: 54 Per Cent

Task: Look at this compound and give its reported Per Cent Inhibition of the Edema. Sc1nc2n(n1)Cc1ccccc1-2
Output: 49 Per Cent
